Cited source: patent US10221215

Target: Ras (residues 1-166 of human Ha-Ras) (human, UniProt P01112 1-166)
Assay: cell-based or functional assay
No end group written: not given here.
measurement.name: % Inhibition (Sos-mediated nucleotide exchange from Ras, mantGDP) (%)

Below, each entry is followed by its recorded % Inhibition (Sos-mediated nucleotide exchange from Ras, mantGDP) result.
- binder: "FEAIYRLEKLKAEEAN [Peptide 15]"
  recorded.measurement: 50
- binder: "FEGLLRLWLRKAEEAN [Peptide 12]"
  recorded.measurement: 50
- binder: "FEGLLRLWLRKAEEAN (staple (positions not given here); also: HBS: N-terminal main-chain i,i+4 H-bond replaced by C-C bond (ring-closing metathesis), residues 1-4) [HBS 12]"
  recorded.measurement: 55

I: FEGIYRTELLKAEEAN (staple (positions not given here); also: HBS: N-terminal main-chain i,i+4 H-bond replaced by C-C bond (ring-closing metathesis), residues 1-4) [HBS 6]
II: FEGIYRTDILRTEEGN (staple (positions not given here); also: HBS: N-terminal main-chain i,i+4 H-bond replaced by C-C bond (ring-closing metathesis), residues 1-4) [HBS 1]
Min % Inhibition (Sos-mediated nucleotide exchange from Ras, mantGDP)? I | II Use the label to indicate which entry you chose. II
(II: 11%, I: 40%)
